Experimental System: Histamine H3 Receptor (Rattus norvegicus)
Construct: from tissue; host or cells: rat cerebral cortex membranes
Sequence (Q9QYN8 whole entry): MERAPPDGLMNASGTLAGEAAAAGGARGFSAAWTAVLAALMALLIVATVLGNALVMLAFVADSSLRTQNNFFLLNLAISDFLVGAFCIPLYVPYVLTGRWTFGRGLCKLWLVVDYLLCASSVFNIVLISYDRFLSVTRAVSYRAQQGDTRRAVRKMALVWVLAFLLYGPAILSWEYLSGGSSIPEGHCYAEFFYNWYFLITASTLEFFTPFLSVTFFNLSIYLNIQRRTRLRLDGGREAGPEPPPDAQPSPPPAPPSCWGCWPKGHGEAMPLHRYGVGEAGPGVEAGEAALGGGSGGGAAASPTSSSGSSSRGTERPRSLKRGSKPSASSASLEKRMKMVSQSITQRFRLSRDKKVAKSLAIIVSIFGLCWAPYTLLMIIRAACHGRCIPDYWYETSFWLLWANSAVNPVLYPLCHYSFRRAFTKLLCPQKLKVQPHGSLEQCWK
Run Description: In Vitro Histamine H3 Receptor Binding Analysis ([3H]-Nα-methylhistamine, rat cortical membranes)
Test Settings: rat cortical membranes; 0.8-1.2 nM [3H]-Nα-methylhistamine; 40 minutes at 25° C.; pH 7.4; read-out: H3 Receptor Ki
Method: Histamine H3 receptor affinity was determined in rat cortical membranes using the H3 selective agonist ligand, [^3 H]-N^α -methylhistamine (78.9 Ci/mmole, DuPont NEN Research Products, Boston, Mass.) according to the method of West et al., (1990) Mol. Pharmacol. 38: 610-613 with modifications. Briefly, animals were sacrificed by decapitation and the cerebral cortex was rapidly removed. […] Protein concentrations were determined by Coomassie Plus Protein Assay (Pierce, Rockford, Ill.). […]
Recorded pKi, one value per entry.
Please express pKi as -log10 of the molar concentration.

>>> observed_value("O=C(NCCCc1ccccc1)[C@@H]1C[C@H]1c1c[nH]cn1 (relative stereo) [Example 33]")
6.71
>>> observed_value("O=C(NCCC1CCCCC1)C1CC1c1c[nH]cn1 (stereo not shown) [Example 28]")
7.34
>>> observed_value("O=C(NCCc1c[nH]c2ccccc12)[C@@H]1C[C@H]1c1c[nH]cn1 (relative stereo) [Example 35]")
6.36
>>> observed_value("O=C(NCCc1c[nH]cn1)[C@@H]1C[C@H]1c1c[nH]cn1 (relative stereo) [Example 34]")
6.64
>>> observed_value("CC(C)(C)CCC#C[C@@H]1C[C@H]1c1c[nH]cn1 [Example 39]")
9.82
>>> observed_value("O=C(NCC(O)CC1CCCCC1)[C@@H]1C[C@H]1c1c[nH]cn1 (relative stereo) [Example 36]")
6.84
>>> observed_value("O=C(NCCc1ccccc1)[C@@H]1C[C@H]1c1c[nH]cn1 (relative stereo) [Example 9]")
6.79
>>> observed_value("CC(C)(C)CCC#C[C@@H]1C[C@H]1c1c[nH]cn1 (relative stereo) [Example 38]")
9.48
>>> observed_value("CC1CCCCN1CCCNC(=O)[C@@H]1C[C@H]1c1c[nH]cn1 (relative stereo) [Example 3]")
6.18

Let us move to another entry and its pKi.
Query block: Recall the recorded pKi for CN(CC1CCCCC1)C(=O)[C@@H]1C[C@H]1c1c[nH]cn1 (racemic) [Example 11] with Histamine H3 Receptor (Rattus norvegicus) and state it.
Result block: 6.87
